Tested on: Staphylococcus aureus
Assay: MIC determination against ESKAPE pathogens (broth culture, 96-well, turbidity)
Format: cell-based
Details: Staphylococcus aureus strain 635; 37° C.
Numbered stars: 1 amine (or outer) side, 2 acyl side, 3 side chain; on linkers, the order of the positions; unused ones are H or OH. Square brackets hold non-standard residues; d marks the D form. Peptide text beside a SMILES is read from it. X1 = NN([C@H](Cc1ccccc1)C(=O)[*:2])[*:1]; Orn(Nα-NH2) = NCCC[C@H](NN)C(=O)O
Quantity Kind: MC90 Results, Sa (+) (µM)
API: value field is a number in µM; no unit string.

Look up MC90 Results, Sa (+) with Staphylococcus aureus for this molecule: CC(C)C[C@@H]1NC(=O)[C@H](CCCN)N(N)C(=O)[C@H](C(C)C)NC(=O)[C@@H]2CCCN2C(=O)[C@@H](Cc2ccccc2)N(N)C(=O)[C@H](CC(C)C)NC(=O)[C@H](CCCN)N(N)C(=O)[C@H](C(C)C)NC(=O)[C@@H]2CCCN2C(=O)[C@@H](Cc2ccccc2)N(N)C1=O [Compound 9] (cyclo(L[X1]PV[Orn(Nα-NH2)]L[X1]PV[Orn(Nα-NH2)]))
2

meta.source: patent US10730913B1
